Dear all, this message contains pIC50 results, target or system Peroxisome proliferator-activated receptor alpha (Homo sapiens, UniProt Q07869).
pIC50: −log10 of the molar value.

{"columns": ["compound", "result"],
 "data": [
  ["CCCCCCCC/C=C(\\CCCCCCCC(=O)O)[N+](=O)[O-]", "< 4.82"],
  ["CCCCCC/C(=C\\CCCCCCCC(=O)O)[N+](=O)[O-]", "< 4.82"],
  ["CCCCCC/C=C(\\CCCCCCCC(=O)O)[N+](=O)[O-]", "< 4.82"],
  ["CCCCC/C(=C\\CCCCCCCCCCC(=O)O)[N+](=O)[O-]", 5.96],
  ["CCCCC/C=C(\\CCCCCCCCCCC(=O)O)[N+](=O)[O-]", 5.80]
]}

Task item: Endpoint output: pIC50 of CCCCCCCCCCCC/C=C(\CCCC(=O)O)[N+](=O)[O-] . Value?
Reply: < 4.82

Task item: Can you handle CCCCCCCCCCCC/C(=C\CCCC(=O)O)[N+](=O)[O-] next?
Reply: < 4.82

Task item: Can you handle CCCCCCCC/C(=C\CCCCCCCC(=O)O)[N+](=O)[O-] next?
Reply: < 4.82

* * *

# assay_system: Peroxisome proliferator-activated receptor alpha (Homo sapiens, UniProt Q07869)
# Sequence (Q07869 whole entry): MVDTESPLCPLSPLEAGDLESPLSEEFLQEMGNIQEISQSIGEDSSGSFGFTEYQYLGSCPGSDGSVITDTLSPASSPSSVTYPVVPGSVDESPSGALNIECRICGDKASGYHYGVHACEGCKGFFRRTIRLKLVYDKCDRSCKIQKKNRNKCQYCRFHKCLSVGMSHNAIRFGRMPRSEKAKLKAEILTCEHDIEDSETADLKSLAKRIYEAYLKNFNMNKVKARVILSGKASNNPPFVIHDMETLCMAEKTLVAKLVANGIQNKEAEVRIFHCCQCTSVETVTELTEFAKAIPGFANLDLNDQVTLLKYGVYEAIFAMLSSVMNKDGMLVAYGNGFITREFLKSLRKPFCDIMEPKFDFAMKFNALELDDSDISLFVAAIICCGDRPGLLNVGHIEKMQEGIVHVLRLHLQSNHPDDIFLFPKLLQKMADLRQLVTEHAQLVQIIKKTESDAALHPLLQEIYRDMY
metric: IC50 (µM)
Please give a number only; it is taken to be in µM.

Task item: Endpoint output: IC50 of CCCCC/C=C(\C/C=C\CCCCCCCC(=O)O)[N+](=O)[O-] . Value?
Reply: 9.6

* * *

# test_summary: Cytotoxicity against human MCF7 cells expressing human PPARgamma assessed as cell survival at 5 uM after 7 days by sulforhodamine B assay
metric: viability at 168 h, 5 µM

Task item: Endpoint output: viability at 168 h, 5 µM of CCCCCCCC/C=C(\CCCCCCCC(=O)O)[N+](=O)[O-] . Value?
Reply: < 5%

* * *

# assay_system: Peroxisome proliferator-activated receptor gamma (Homo sapiens)
# Sequence (P37231 whole entry): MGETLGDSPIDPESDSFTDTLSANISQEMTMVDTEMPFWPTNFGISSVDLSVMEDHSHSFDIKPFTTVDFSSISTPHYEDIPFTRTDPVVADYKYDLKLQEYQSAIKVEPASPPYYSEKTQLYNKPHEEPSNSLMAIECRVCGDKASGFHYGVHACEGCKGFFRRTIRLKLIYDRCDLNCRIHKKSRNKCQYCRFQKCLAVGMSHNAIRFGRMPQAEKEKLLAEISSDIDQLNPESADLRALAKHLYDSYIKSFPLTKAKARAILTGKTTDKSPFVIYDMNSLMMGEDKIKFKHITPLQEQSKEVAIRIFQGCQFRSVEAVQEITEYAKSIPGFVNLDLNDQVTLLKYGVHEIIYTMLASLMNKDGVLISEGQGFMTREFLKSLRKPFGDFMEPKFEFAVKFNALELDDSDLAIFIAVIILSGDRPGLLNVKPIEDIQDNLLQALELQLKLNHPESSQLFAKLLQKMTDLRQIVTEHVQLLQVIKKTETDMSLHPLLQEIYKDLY
# test_summary: Displacement of [3H2]nTZD3 from GST-tagged human recombinant PPARgamma by scintillation proximity assay
Lab note: cut-off is 800 nM. Strictly less in IC50 is yes (1). Exactly 800 nM or more is no (0).

Solved entries:
{"columns": ["compound", "assigned_label"],
 "data": [
  ["CCCCCCCC/C=C(\\CCCCCCCC(=O)O)[N+](=O)[O-]", "no (0)"],
  ["CCCCCC/C=C(\\CCCCCCCC(=O)O)[N+](=O)[O-]", "no (0)"],
  ["CCCCCCCCCCCC/C=C(\\CCCC(=O)O)[N+](=O)[O-]", "no (0)"],
  ["CCCCCCCCCCCC/C(=C\\CCCC(=O)O)[N+](=O)[O-]", "no (0)"],
  ["CCCCC/C=C(\\CCCCCCCCCCC(=O)O)[N+](=O)[O-]", "yes (1)"],
  ["CCCCCC/C(=C\\CCCCCCCC(=O)O)[N+](=O)[O-]", "yes (1)"]
]}

Task item: Dear colleague, could you confirm whether IC50 of CCCCC/C(=C\CCCCCCCCCCC(=O)O)[N+](=O)[O-] falls below 800 nM? Thanks.
Reply: yes (1)

Task item: Can you handle CCCCCCCC/C(=C\CCCCCCCC(=O)O)[N+](=O)[O-] next?
Reply: no (0)
